List of EC50 values.
Target: GPR119 receptor (Homo sapiens)
Sequence (Q8TDV5 whole entry): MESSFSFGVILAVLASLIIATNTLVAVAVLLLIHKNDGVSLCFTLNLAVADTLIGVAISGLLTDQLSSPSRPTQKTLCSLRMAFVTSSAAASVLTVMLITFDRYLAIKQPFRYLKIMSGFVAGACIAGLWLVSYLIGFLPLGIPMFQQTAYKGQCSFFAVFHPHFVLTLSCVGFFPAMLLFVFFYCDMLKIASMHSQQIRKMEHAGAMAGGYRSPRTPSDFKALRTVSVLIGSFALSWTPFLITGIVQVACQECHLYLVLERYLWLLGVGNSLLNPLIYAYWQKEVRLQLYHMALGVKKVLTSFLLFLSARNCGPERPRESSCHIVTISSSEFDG
Assay: cAMP assay in cells transfected with the GPR119 receptor (human)
Settings: increase in intracellular cAMP, read-out: h-cAMP EC50
A number alone suffices; assume nM.

In [3]: df
Out[3]:
                                   compound  testreadout  assayvalue
0  COc1ccc(-c2csc3c(OC4C5COCC4CN(C(=O)OC(C)C)C5)ncnc23)c(F)c1 (stereo not shown) [Example 27]         EC50        0.76
1  Cn1cc(-c2ccc(C#N)cc2F)c2ncnc(OC3C4COCC3CN(C(=O)OC3(C)CC3)C4)c21 (stereo not shown) [Example 17]         EC50          13

Problem: Please look up its EC50: CC1(OC(=O)N2CC3COCC(C2)C3Oc2ncnc3c(-c4ccc(CO)cc4F)csc23)CC1 (stereo not shown) [Example 29]
Solution: 0.48

Problem: What value of EC50 has been recorded for this entry: CC1(OC(=O)N2CC3COCC(C2)C3Oc2ncnc3c(-c4ccc(O)cc4F)csc23)CC1 (stereo not shown) [Example 44]
Solution: 1

Taken from patent US20130096141A1.
